Assay: small-molecule microarray binders of probe aDKK1, primary screen, biochemical, biotinylated probe, 635/667 nm fluorescence (AID 1099);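 also: score merges 667nm spot fluorescence with signal to noise across triplicate slides; reference of the scale not given here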
Conditions: higher = more signal

molecule	composite z-score
COc1cc(OC)c(C(O)C2C=CC3C(=O)NC(=O)C3N2Nc2ccc(Cl)cc2Cl)cc1Br (stereo not drawn)	2.08
[N-]=[N+]=NCc1ccccc1C[C@]1(C(=O)O)N=C(c2ccc(OCCCO)cc2)O[C@H]1c1ccccc1N=[N+]=[N-]	0.621
COc1ccc([C@H]2OC[C@@H]3CC4(CC=CC4)C(=O)N32)cc1	-0.231
O=C1NCC(=O)N2[C@@H]1C[C@@H](C(=O)O)[C@H]2c1cccc(OCCO)c1	3.06
[N-]=[N+]=NCc1ccccc1C[C@]1(C(=O)NCC(O)CO)N=C(c2ccc(OCCCO)cc2)O[C@H]1c1ccccc1 (stereo partly drawn)	1.04
O=C1C2C=CC(C(O)C(c3ccccc3)c3ccccc3)N(n3cnnc3)C2C(=O)N1Cc1ccccc1 (stereo not drawn)	-0.0184
C=C(/C(=C/C[C@@H](OC(C)=O)c1ccc(OCCO)cc1)c1cnc2ccccc2c1)C(C)C	-0.229
COc1ccc(C#Cc2ccc3c(c2)[C@]2(C(=O)N3)[C@H](c3ccccc3OCCO)N3[C@H](c4ccccc4)[C@H](c4ccccc4)OC(=O)[C@H]3[C@@H]2C(=O)O)cc1	0.734

----------
Experiment: basal HepG2 mitochondrial membrane potential changes, profiling panel, cell-based, JC-1 fluorescence, 24 h, 100 nL compound (AID 1167); also: test concentration not given here
Settings: higher = more signal
readout_name: z-score

molecule	readout_name	value_observed
CCOC(=O)[C@H]1CC=C2CC1C(=O)N1CCC[C@@H]1[C@@H]2O[Si](C)(C)C(C)(C)C (some centres undefined)	z-score	-2.25
C=C[C@H](COC(C)=O)N(C(=O)OC(C)(C)C)S(=O)(=O)c1ccc(Br)cc1	z-score	-0.87
C=C(CCCC)C(=O)CC[C@@H](OC(=O)c1cccnc1)c1ccc(CO)o1	z-score	-1.35
C=CCN(Cc1ccccc1)C(=O)C(c1cccs1)N(CCOCCO)C(=O)/C=C\C(=O)O (centres undefined)	z-score	-0.138
CC(C)c1ccc(NN2C(C(O)C(c3ccccc3)c3ccccc3)C=CC3C(=O)N(c4ccccc4)C(=O)C32)cc1 (centres undefined)	z-score	-0.988
CCC(CC)C(O)C1C=CC2C(=O)N(C)C(=O)C2N1Nc1ccccc1 (centres undefined)	z-score	-0.843
COCC(=C=CC[C@H](O)c1ccccc1OCCO)C[C@H](O)c1cc(Cl)cc(Cl)c1O	z-score	-0.775
CCCCC=C[C@@H](NC(=O)Oc1cccc(C(F)(F)F)c1)c1ccccc1	z-score	-1.63
COc1ccc([C@H]2C[C@H]3C(Br)=C[C@@H]2C(=O)[C@]32CO2)cc1	z-score	-0.262

----------
Tested on: Noggin (protein binding on small-molecule microarray)
Assay: Noggin binders on small-molecule microarray, primary screen, biochemical, 635/667 nm fluorescence (AID 1095);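 also: score merges 667 nm feature fluorescence with signal to noise over triplicate slides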
Settings: 635 nm fluorescence, higher = more signal
Entry class follows composite z-score: lowest (below -0.05), middle (-0.05 to below 0.8), highest (0.8 or more)

molecule	label_value
CN1C(=O)C2C=CC(C(O)Cc3ccccc3)N(Nc3ccccc3)C2C1=O (stereo not drawn)	middle
[N-]=[N+]=NCc1ccccc1[C@@H]1OC(c2ccc(OCCCO)cc2)=N[C@]1(CCS(=O)(=O)c1ccccc1)C(=O)NCCN1CCOCC1	highest
O=C1C[C@]2(c3ccc([N+](=O)[O-])cc3)C(=O)N(CCN3CCOCC3)c3cc(CO)ccc3[C@H]2N1C1CCCCC1	lowest
C=CCNC(=O)[C@H]1[C@@H]2C(=O)O[C@@H](c3ccccc3)[C@@H](c3ccccc3)N2[C@@H](c2ccc(OCCO)cc2)[C@]12C(=O)N(C(=O)OCCOC)c1ccccc12	highest
CC1CC/C=C\[C@H]2OC34C=CCN(C(C)(C)C)C(=O)[C@H]3N(CCCCCCO)C(=O)[C@@H]4C2C(=O)O1 (stereo partly drawn)	lowest
CCCCc1cn(C[C@H](Cc2ccccc2)NC(=O)N[C@H](CO)CCc2oc(C(C)=O)c(C(=O)OC)c2C(=O)OC)nn1	highest
CCCC=C(CCC)[C@@H](NC(=O)Oc1ccc(F)cc1)c1ccc(C(=O)OC)cc1	lowest
C=C(COC)/C(=C/C[C@H](OC(=O)c1ccncc1)c1ccc(OCCO)cc1)c1cnc2ccccc2c1	highest
O=C1c2ccccc2[C@@]2(Cc3ccccc3N(CC(F)(F)F)C2=O)[C@H](c2ccc(CO)cc2)N1Cc1ccccc1Cl	middle
CC(C)N1C(=O)c2ccccc2[C@](C)(C(=O)NCc2ccccc2)[C@@H]1c1ccc(CO)cc1	lowest
COC(=O)[C@@]1(Cc2ccc(OC)cc2)[C@H]2c3cc(C(=O)N4CCCC4)n(Cc4ccccc4)c3C[C@H]2CN1C(=O)c1ccccc1	lowest
C[C@]1(C(=O)NC2CC2)c2ccccc2C(=O)N(Cc2cc(C(F)(F)F)cc(C(F)(F)F)c2)[C@H]1c1ccc(CO)cc1	highest
CC(C)C[C@H]1NC(=O)[C@@]23C(=O)N[C@@H](Cc4ccccc4)C2[C@H](C)[C@@]2(C)O[C@H]2C3/C=C/C/C=C\CNC(=O)[C@H](Cc2ccccc2)NC1=O (stereo partly drawn)	highest
C=CCOC(=O)[C@H]1[C@@H]2C(=O)O[C@@H](c3ccccc3)[C@@H](c3ccccc3)N2[C@@H](c2ccc(OCCOC(=O)[C@H]3C[C@H]4C(=O)N5CCC[C@H]5C(=O)N4[C@H]3c3ccc(O)cc3)cc2)[C@]12C(=O)Nc1ccccc12	middle
C=CCOC(=O)[C@@H]1[C@H]2C(=O)O[C@H](c3ccccc3)[C@H](c3ccccc3)N2[C@H](c2ccc(OCCOC(=O)[C@@H]3C[C@@H]4C(=O)N[C@@H](Cc5ccccc5)C(=O)N4[C@@H]3c3ccc(O)cc3)cc2)[C@@]12C(=O)Nc1ccc(I)cc12	highest
C[N+](C)(C)CCCC[C@@H]1NC(=O)[C@@H]2C[C@H](C(=O)NCCCCCN)[C@H](c3cccc(OCCO)c3)N2C1=O	middle
OC([C@@H]1CC(c2ccccc2)=NO1)[C@H]1CC(c2ccccc2)=NO1 (stereo partly drawn)	middle
CC(C)C[C@@H]1NC(=O)[C@H]2C[C@@H](C(=O)NCCCCCCN)[C@@H](c3ccc(O)cc3)N2C1=O	middle
CC(C)(C)OC(=O)CC[C@@]1(C(=O)NCCN2CCOCC2)N=C(c2ccc(OCCCO)cc2)O[C@@H]1c1ccccc1N=[N+]=[N-]	middle
COc1cc2c(cc1O)C(C1CC1)N(Cc1cc3c(cc1Br)OCO3)CC2 (stereo not drawn)	lowest
CCCC[C@@H]1C[C@H]1[C@@H](NC(=O)c1ccco1)c1ccc(C(=O)OC)cc1	lowest
COCCOC(=O)N1C(=O)[C@@]2(c3cc(C#CCCO)ccc31)[C@H](c1ccc(OCCO)cc1)N1[C@H](c3ccccc3)[C@H](c3ccccc3)OC(=O)[C@H]1[C@@H]2C(=O)N1CCN(c2ncccn2)CC1	highest
COc1ccc([Si](C)(C)[C@H]2[C@H](CC(=O)N3Cc4ccccc4C[C@H]3CO)O[C@@]3(C(=O)N(Cc4ccc(N5CCC5=O)cc4)c4ccccc43)[C@@H]2C)cc1	highest
O=C(c1ccccc1)N1Cc2ccccc2[C@@H]2OC(c3ccc(OCCCO)cc3)=N[C@]2(Cc2ccccc2)C1=O	highest
COc1ccc(NN2C(C(O)c3ccc([N+](=O)[O-])cc3)C=CC3C(=O)N(C4CCCCC4)C(=O)C32)cc1 (stereo not drawn)	middle
O=C1O[C@H](c2ccccc2)[C@H](c2ccccc2)N2[C@H]1[C@@H](C(=O)O)[C@]1(C(=O)Nc3ccc(C#CCCO)cc31)[C@H]2c1ccc(O)cc1	lowest
C=C/C=C/[C@H]1C(=C)CN([C@@H](Cc2ccccc2)C(=O)OC)[C@@H]1[C@H](O)Cc1ccccc1	lowest
